Numbers sourced from patent US9206432B2.

Test system: lacZ under control of the tetA promoter (PtetA) in E. coli KM3
Type: cell-based
Settings: Table 4; sulfometuron 20 ppm; 48 hrs at 30° C.
ATTRIBUTE MEASURED: relative β-galactosidase activity, inducer Sm

>  <MOLECULE>
L1-28: SU-responsive TetR(B) variant, library L1 hit (protein, Sulfonylurea responsive repressor L1-28) MGSRLDKSKVINSALELLNEVGIEGLTTRKLAQKLGVEQPTLYWHVKNKRALLDALAIEMLDRHATHFCPLEGESWQDFLRNNAKSMRCALLSHRDGAKVWLGTAWTEKQYETPENVLAFLCQQGFSLENALYASRAVVTFTLGCVLTDQEKQVAKEERETPTTDSMPPLLRQAWELLDHQGAEPAFLFGLELIICGLEKQLKCESGS

>  <TEST VALUE>
1.1

$$$$
